STUDY_SYSTEM: HLA-A01.01 (Homo sapiens, UniProt P04439, A114D/A174V/A182V/D101N/D185E/E176A/E190D/L180R/Q94H/R68K/S129P/T187R/V100A/V91M/W191G)
PROTOCOL_DETAILS: Class I MHC peptide binding affinity (displacement of radiolabeled reference peptide)
CONDITION_SUMMARY: allele A01.01; read-out: Observed Affinity (IC50; (nM))
Procedure: In brief, MHCI complexes were prepared and bound to radiolabeled reference peptides. Peptides were incubated at varying concentrations with these complexes for 2 days, and the amount of remaining radiolabeled peptide bound to […] was measured using size exclusion gel-filtration.
Where a SMILES comes first, the peptide text is derived from it.
MEASURED_ATTRIBUTE: IC50 (nM)
Could you give me the number in nM? Just the number is fine.

Past entries and their recorded results:
CSCC[C@H](NC(=O)[C@@H](N)Cc1ccc(O)cc1)C(=O)N[C@@H](C)C(=O)N[C@@H](CC(N)=O)C(=O)NCC(=O)N[C@@H](CO)C(=O)N[C@@H](CC(C)C)C(=O)N[C@@H](CC(C)C)C(=O)N[C@@H](CC(N)=O)C(=O)N[C@@H](Cc1ccc(O)cc1)C(=O)O (H-YMANGSLLNY-OH; N-terminus and C-terminus assumed) | 13.2
CC[C@H](C)[C@H](NC(=O)[C@@H]1CCCN1C(=O)[C@H](CC(C)C)NC(=O)[C@H](Cc1ccccc1)NC(=O)[C@H](CC(C)C)NC(=O)[C@H](CO)NC(=O)[C@H](CC(=O)O)NC(=O)[C@@H](NC(=O)[C@H](CC(C)C)NC(=O)[C@@H](N)CCSC)[C@@H](C)O)C(=O)O | 7670

Next:
Supply IC50 value. Item: CC(C)[C@H](NC(=O)[C@H](CCC(=O)O)NC(=O)[C@H](CC(N)=O)NC(=O)[C@H](CO)NC(=O)CNC(=O)[C@@H](N)[C@@H](C)O)C(=O)N[C@H](C(=O)N[C@H](C(=O)N[C@@H](CCCNC(=N)N)C(=O)N[C@@H](Cc1ccc(O)cc1)C(=O)O)[C@@H](C)O)[C@@H](C)O (H-TGSNEVTTRY-OH; N-terminus and C-terminus assumed)
15500

Attribution: patent US20220282217A1
